# Test system: various cell lines of different tumor origins
# method: Inhibition of cell proliferation, InCell Analyzer assay
# Type: cell-based
# experimentalSetup: Homo sapiens, SW48, SW48, Colon
valueKind: IC50

Query string: Supply measured IC50 of COc1cc(N2CCC(N3CCCCC3)CC2)ccc1Nc1nccc(-c2c(-c3cccc(C(=O)Nc4c(F)cccc4F)c3)nc3ccccn23)n1 in your reply.
Result string: < 1000 nM

====

I'd appreciate it if you could supply IC50 values for the items below.
# targetOrTestSystem: IR (NIH-3T3 cells over expressing human IGF-1R or IR) (Homo sapiens, UniProt P06213)
# Sequence (P06213 28-1382): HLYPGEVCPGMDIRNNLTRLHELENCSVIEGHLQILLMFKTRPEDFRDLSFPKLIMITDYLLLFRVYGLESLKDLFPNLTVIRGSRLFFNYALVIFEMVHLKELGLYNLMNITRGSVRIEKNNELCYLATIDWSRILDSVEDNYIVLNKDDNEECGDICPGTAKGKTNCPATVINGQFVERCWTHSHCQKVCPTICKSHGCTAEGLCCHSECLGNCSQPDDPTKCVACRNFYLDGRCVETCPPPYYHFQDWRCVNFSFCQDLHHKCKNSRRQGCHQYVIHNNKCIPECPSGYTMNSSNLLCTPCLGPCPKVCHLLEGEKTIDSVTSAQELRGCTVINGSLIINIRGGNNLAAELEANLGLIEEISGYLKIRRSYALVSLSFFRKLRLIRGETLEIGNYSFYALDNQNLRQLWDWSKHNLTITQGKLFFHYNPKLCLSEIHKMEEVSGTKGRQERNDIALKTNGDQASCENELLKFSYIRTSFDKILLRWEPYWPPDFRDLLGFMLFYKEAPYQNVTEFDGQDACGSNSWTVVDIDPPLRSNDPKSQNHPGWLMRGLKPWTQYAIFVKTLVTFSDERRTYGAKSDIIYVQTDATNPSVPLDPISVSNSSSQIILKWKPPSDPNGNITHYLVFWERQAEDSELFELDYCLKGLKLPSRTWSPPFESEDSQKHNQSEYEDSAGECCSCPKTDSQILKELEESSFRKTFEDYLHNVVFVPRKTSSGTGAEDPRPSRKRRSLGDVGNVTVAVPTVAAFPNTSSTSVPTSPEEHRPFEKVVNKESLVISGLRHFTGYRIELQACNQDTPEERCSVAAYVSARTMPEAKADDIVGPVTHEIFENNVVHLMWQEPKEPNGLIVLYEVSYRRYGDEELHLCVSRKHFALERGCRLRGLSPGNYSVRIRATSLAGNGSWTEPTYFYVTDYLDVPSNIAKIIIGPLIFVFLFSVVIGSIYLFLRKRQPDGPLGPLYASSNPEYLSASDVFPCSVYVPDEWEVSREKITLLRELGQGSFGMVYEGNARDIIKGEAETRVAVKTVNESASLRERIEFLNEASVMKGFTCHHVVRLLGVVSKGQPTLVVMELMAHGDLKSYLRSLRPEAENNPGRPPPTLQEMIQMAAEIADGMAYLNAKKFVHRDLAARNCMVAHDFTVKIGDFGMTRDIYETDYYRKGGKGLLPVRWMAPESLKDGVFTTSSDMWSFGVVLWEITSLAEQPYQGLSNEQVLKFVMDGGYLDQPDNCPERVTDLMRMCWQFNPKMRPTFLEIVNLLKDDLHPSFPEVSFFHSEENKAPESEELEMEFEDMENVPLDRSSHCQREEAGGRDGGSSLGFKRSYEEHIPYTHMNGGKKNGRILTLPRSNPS
# method: IR cellular autophosphorylation (DELFIA)
# experimentalSetup: NIH-3T3 cells over expressing IR, insulin stimulated

State recorded IC50 for all listed compounds.
1. COc1cc(N2CCC(N3CCN(CCF)CC3)CC2)ccc1Nc1nccc(-c2c(-c3cccc(C(=O)Nc4c(F)cccc4F)c3)nc3cc(F)ccn23)n1
2. CCOc1ccc(-c2nc3ccccn3c2-c2ccnc(Nc3ccc(N4CCC(N5CCN(S(C)(=O)=O)CC5)CC4)cc3OC)n2)cc1C(=O)Nc1c(F)cccc1F

Result string:
["100 to 500 nM", "< 100 nM"]

====

I'd appreciate it if you could supply pIC50 values for the items below.
# targetOrTestSystem: IR (NIH-3T3 cells over expressing human IGF-1R or IR) (Homo sapiens)
# method: IR cellular autophosphorylation (DELFIA)
# experimentalSetup: NIH-3T3 cells over expressing IR, insulin stimulated
pIC50: −log10 of the molar value.

compound	pIC50
CCOc1cc(N2CCN(CCS(C)(=O)=O)CC2)ccc1Nc1nccc(-c2c(-c3cccc(C(=O)Nc4c(F)cccc4F)c3)nc3ccccn23)n1 [Example 145]	> 7.00
CCc1cc(N2CCC(N3CCCCC3)CC2)ccc1Nc1nccc(-c2c(-c3cccc(C(=O)Nc4c(F)cccc4F)c3)nc3ccccn23)n1 [Example 40]	6.30 to 7.00
COc1ccn2c(-c3ccnc(Nc4ccc(N5CCC(N6CCCCC6)CC5)cc4OC)n3)c(-c3cccc(C(=O)Nc4c(F)cccc4F)c3)nc2c1 [Example 39]	6.30 to 7.00

State recorded pIC50 for all listed compounds.
1. COc1cc(N2CCC(N3CCCCC3)CC2)ccc1Nc1nccc(-c2c(-c3cccc(C(=O)Nc4c(F)cccc4F)c3)nc3c(C)cccn23)n1 [Example 43]
2. CCOc1ccc(-c2nc3ccccn3c2-c2ccnc(Nc3ccc(N4CCN(CCOC)CC4)cc3OC)n2)cc1C(=O)Nc1c(F)cccc1F [Example 238]
3. COc1cc(N2CCC(N3CCN(CCF)CC3)CC2)c(C)cc1Nc1nccc(-c2c(-c3cccc(C(=O)Nc4c(F)cccc4F)c3)nc3ccccn23)n1 [Example 113]

Result string:
["6.30 to 7.00", "> 7.00", "> 7.00"]

====

# Tested on: various cell lines of different tumor origins
# method: Inhibition of cell proliferation, InCell Analyzer assay
# Format: cell-based
# experimentalSetup: Homo sapiens, NCI-H716, NCI-H716, Colon
valueKind: IC50

Query string: Supply measured IC50 of COc1cc(N2CCC(N3CCCCC3)CC2)ccc1Nc1nccc(-c2c(-c3cccc(C(=O)Nc4c(F)cccc4F)c3)nc3ccccn23)n1 [Example 22] in your reply.
Result string: < 1 µM

====

# System: various cell lines of different tumor origins
# method: Inhibition of cell proliferation, InCell Analyzer assay
# Format: cell-based
# experimentalSetup: CRO-AP5, CRO-AP5, lymphoma - B cell unspecified
valueKind: IC50

Query string: Supply measured IC50 of COc1cc(N2CCC(N3CCCCC3)CC2)ccc1Nc1nccc(-c2c(-c3cccc(C(=O)Nc4c(F)cccc4F)c3)nc3ccccn23)n1 in your reply.
Result string: > 5 µM
